Origin of values: patent US6399568B1

- Target System: Mouse histone deacetylase
- Type: biochemical
- Condition Info: enzyme from FM3A cells; [3H]acetyl histone; 37° C. 10 minutes
Non-standard residues stand in square brackets, D forms with d. Residues, ends and D or L forms follow the SMILES beside them. *: point of attachment. Aoe = N[C@@H](CCCCCC(=O)[C@@H]1CO1)C(=O)O; Asu = N[C@@H](CCCCCC(=O)O)C(=O)O; dPip = O=C(O)[C@H]1CCCCN1; Boc = CC(C)(C)OC(=O)*; NHOH = ON*
Please respond with reported pIC50 for every item in the list.
One number for each entry, as −log10 of the molar value.

Example compounds with recorded pIC50:
CC(C)(C)OC(=O)NCCCC[C@@H]1NC(=O)[C@H](CCCCCC(=O)NO)NC(=O)[C@H]2CCCN2C(=O)[C@H](Cc2ccccc2)NC1=O [HDA-32] (cyclo([Asu](NHOH)K(Boc)F[dP])) : 8.31
CC(C)C[C@@H]1NC(=O)[C@@H](Cc2ccccc2)NC(=O)[C@H](CCCCCC(=O)NO)NC(=O)[C@@H]2CCCN2C1=O [HDA-28, cyclo(-L-Asu(NHOH)-D-Phe-L-Leu-L-Pro-)] (cyclo([Asu](NHOH)[dF]LP)) : 8.22
O=C1N[C@@H](Cc2ccccc2)C(=O)N2CCCC[C@@H]2C(=O)N[C@@H](CCCCCC(=O)[C@@H]2CO2)C(=O)N[C@H]1Cc1ccccc1 [trapoxin A, reference compound] (cyclo([Aoe]FF[dPip])) : 9.33

Identify measured pIC50 corresponding to CC(C)C[C@@H]1NC(=O)[C@@H](Cc2ccccc2)NC(=O)[C@H](CCCCCC(=O)NO)NC(=O)[C@H]2CCCN2C1=O [HDA-29, cyclo(-L-Asu(NHOH)-D-Phe-L-Leu-D-Pro-)] (cyclo([Asu](NHOH)[dF]L[dP]))
8.80
